Where these numbers come from: ChEMBL document CHEMBL1157484

# TARGET_OF_ASSAY: Galectin-1 (Homo sapiens)
# Sequence (P09382 whole entry): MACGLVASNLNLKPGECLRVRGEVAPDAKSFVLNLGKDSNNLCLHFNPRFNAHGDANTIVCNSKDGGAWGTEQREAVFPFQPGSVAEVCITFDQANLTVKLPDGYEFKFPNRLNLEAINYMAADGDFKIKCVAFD
MEASUREMENT_TYPE: Kd (µM)
Reply numerically in µM, unit not repeated.

Name the recorded Kd of CO[C@@H]1O[C@H](CO)[C@H](O)[C@H](OC(=O)c2ccc(C)cc2)[C@@H]1OC(=O)c1ccc(C)cc1 , assay system Galectin-1 (Homo sapiens).
1800

---

# PROTOCOL_DETAILS: Binding affinity to human galectin4N by fluorescence polarization assay
pKd: −log10 of the molar value.
Recorded pKd, one value per entry.

Below are worked cases with known answers.
1. CO[C@@H]1O[C@H](CO)[C@H](O)[C@H](OC(=O)c2ccc(C)cc2)[C@@H]1O[PH](=O)O    < 2.40
2. CO[C@@H]1O[C@H](CO)[C@H](O)[C@H](OC(=O)c2ccc(C)cc2)[C@@H]1OC(=O)c1ccc(C)cc1    < 2.40
3. CO[C@@H]1O[C@H](CO)[C@H](O)[C@H](OC(=O)c2ccc(C)cc2)[C@@H]1OC(C)=O    < 2.40
4. CO[C@@H]1O[C@H](CO)[C@H](O)[C@H](O)[C@@H]1O    < 2.00

Read off the recorded pKd for CO[C@@H]1O[C@H](CO)[C@H](O)[C@H](OC(=O)c2ccc(C)cc2)[C@@H]1O
< 2.40

Look up and state reported pKd for CO[C@@H]1O[C@H](CO)[C@H](O)[C@H](OC(=O)c2ccc(C)cc2)[C@@H]1OS(=O)(=O)O
< 2.40

Please list pKd recorded for the compound CO[C@@H]1O[C@H](CO)[C@H](O)[C@H](OC(=O)c2ccc(C)cc2)[C@@H]1OP(=O)(O)OC
< 2.40

Look up pKd of CO[C@@H]1O[C@H](CO)[C@H](O)[C@H](O)[C@H]1O and report it.
2.18

---

Catalogue of pKd values
# PROTOCOL_DETAILS: Binding affinity to human galectin4C by fluorescence polarization assay
# pKd: negative log10 of molar concentration; output just the value

1. CO[C@@H]1O[C@H](CO)[C@H](O)[C@H](O)[C@@H]1O    2.00
2. CO[C@@H]1O[C@H](CO)[C@H](O)[C@H](OC(=O)c2ccc(C)cc2)[C@@H]1OS(=O)(=O)O    2.52
3. CO[C@@H]1O[C@H](CO)[C@H](O)[C@H](OC(=O)c2ccc(C)cc2)[C@@H]1OC(C)=O    2.80

Now let's try a different one.
Give the reported value of pKd for this record: CO[C@@H]1O[C@H](CO)[C@H](O)[C@H](OC(=O)c2ccc(C)cc2)[C@@H]1OC(=O)c1ccc(C)cc1
3.80

---

# TARGET_OF_ASSAY: UniProtKB P05162
# Sequence (P05162 whole entry): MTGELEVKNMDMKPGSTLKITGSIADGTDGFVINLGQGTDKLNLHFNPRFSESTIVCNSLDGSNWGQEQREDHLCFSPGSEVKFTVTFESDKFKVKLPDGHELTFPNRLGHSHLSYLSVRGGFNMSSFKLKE
MEASUREMENT_TYPE: Kd

1) CO[C@@H]1O[C@H](CO)[C@H](O)[C@H](OC(=O)c2ccc(C)cc2)[C@@H]1OP(=O)(O)OC    > 4 mM
2) CO[C@@H]1O[C@H](CO)[C@H](O)[C@H](O)[C@@H]1O    > 10 mM

Continue with the compound presented below.
# return recorded Kd for input CO[C@@H]1O[C@H](CO)[C@H](O)[C@H](OC(=O)c2ccc(C)cc2)[C@@H]1OC(=O)c1ccc(C)cc1
> 4 mM

---

# PROTOCOL_DETAILS: Binding affinity to human galectin9N by fluorescence polarization assay
Kd values for the compounds below.

Here's what some known entries look like.
1. CO[C@@H]1O[C@H](CO)[C@H](O)[C@H](OC(=O)c2ccc(C)cc2)[C@@H]1OP(=O)(O)OC    > 4 mM
2. CO[C@@H]1O[C@H](CO)[C@H](O)[C@H](OC(=O)c2ccc(C)cc2)[C@@H]1OC(=O)c1ccc(C)cc1    > 4 mM
3. CO[C@@H]1O[C@H](CO)[C@H](O)[C@H](OC(=O)c2ccc(C)cc2)[C@@H]1OC(C)=O    > 4 mM
4. CO[C@@H]1O[C@H](CO)[C@H](O)[C@H](OC(=O)c2ccc(C)cc2)[C@@H]1O    > 4 mM
5. CO[C@@H]1O[C@H](CO)[C@H](O)[C@H](OC(=O)c2ccc(C)cc2)[C@@H]1O[PH](=O)O    > 4 mM
6. CO[C@@H]1O[C@H](CO)[C@H](O)[C@H](O)[C@@H]1O    4.6 mM
7. CO[C@@H]1O[C@H](CO)[C@H](O)[C@H](O)[C@H]1O    1.2 mM

Next compound, Kd to be filled in.
Return Kd for the following compound: CO[C@@H]1O[C@H](CO)[C@H](O)[C@H](OC(=O)c2ccc(C)cc2)[C@@H]1OS(=O)(=O)O
> 4 mM
